biological target: refolded pepsin (Rp) (Sus scrofa); construct: Only the R13 and K36 side-chains of the PS form hydrogen bonds with the mature pepsin domain; purchased Sigma (St. Louis, MO, USA); assay: PS-catalyzed folding of Rp to Np (recovery of Np activity); format: biochemical, porcine; conditions: from k f, 15°C, pH 5.3, relative to WT; ± SD by propagation of errors
Sequence (P00791 60-385): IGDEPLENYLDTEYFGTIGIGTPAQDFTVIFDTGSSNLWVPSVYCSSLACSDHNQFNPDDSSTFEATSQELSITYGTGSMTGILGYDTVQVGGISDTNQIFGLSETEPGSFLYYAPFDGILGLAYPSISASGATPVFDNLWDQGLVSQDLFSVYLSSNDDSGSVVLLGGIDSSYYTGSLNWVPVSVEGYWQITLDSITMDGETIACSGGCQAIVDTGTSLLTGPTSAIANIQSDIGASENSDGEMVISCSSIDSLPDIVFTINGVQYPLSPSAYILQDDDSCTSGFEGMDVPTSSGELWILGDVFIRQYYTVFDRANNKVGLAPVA
Where no end group is shown, it is not given here.
endpoint: ΔΔG^‡ (change in folding activation energy upon mutation) (kcal/mol)
Give just the numeric value; kcal/mol need not be written.

Prompt: Sample LVKVPLVRKKSLRQNLIKNGKLKDFLKTHKHNPASAYFPEAAAL [K36A] — what was its ΔΔG^‡ (change in folding activation energy upon mutation)?
Response: 0.94

Prompt: Sample LVKVPLVRKKSLRQNLAKNGKLKDFLKTHKHNPASKYFPEAAAL [I17A] — what was its ΔΔG^‡ (change in folding activation energy upon mutation)?
Response: 0.01

Prompt: Sample LVKVPLVRKKSLAQNLIKNGKLKDFLKTHKHNPASKYFPEAAAL [R13A] — what was its ΔΔG^‡ (change in folding activation energy upon mutation)?
Response: 1.02

Prompt: Sample LVKVPAVRKKSLRQNLIKNGKLKDFLKTHKHNPASKYFPEAAAL [L6A] — what was its ΔΔG^‡ (change in folding activation energy upon mutation)?
Response: 1.36

Prompt: Sample LVKAPLVRKKSLRQNLIKNGKLKDFLKTHKHNPASKYFPEAAAL [V4A] — what was its ΔΔG^‡ (change in folding activation energy upon mutation)?
Response: 0.94

Prompt: Sample LVKVPLVRKKALRQNLIKNGKLKDFLKTHKHNPASKYFPEAAAL [S11A] — what was its ΔΔG^‡ (change in folding activation energy upon mutation)?
Response: 1.18

Prompt: Sample LVKVPLVRKKSLRQNLIKNGKLKDALKTHKHNPASKYFPEAAAL [F25A] — what was its ΔΔG^‡ (change in folding activation energy upon mutation)?
Response: 0.96
